meta.source: PubChem BioAssay (NCI)

# Test system: IGROV1 ovarian
# Assay name: NCI tumour cell line growth inhibition, 48 h
Value type: TGI

Consider NC(Cc1ccc(B(O)O)cc1)C(=O)NC(CO)CO (stereo not drawn) . Its measured TGI is > 100 µM

`CSc1c(C#N)c(S)[nH]c(=O)c1C#N` has a reported TGI of > 100 µM

The measured TGI associated with `O=c1c2c(c1=O)-c1ccccc1CN2` reads > 100 µM

Entry CC(=O)OCC1OC(n2nc(Cc3ccccc3)c(=S)[nH]c2=S)C(OC(C)=O)C(OC(C)=O)C1OC(C)=O (stereo not drawn) , TGI reported as 45.7 µM

Recorded TGI (compound `O=c1c2cc(I)ccc2nc(-c2cccs2)n1/N=C/c1ccccc1` ): > 100 µM

TGI in this record for `CCC[CH2][Pb]([Cl])([CH2]CCC)[CH2]CCC` : 0.179 µM

// TGI lookup, compound = `CCCCN(CCCC)CCCn1cnc2ncccc2c1=O` , result: > 100 µM

Documented TGI of CCCCCCCC(=O)[O][Hg][CH2]C1COC([CH2][Hg][O]C(=O)CCCCCCC)CO1 (stereo not drawn) : 38.3 µM

Sample `CNC(=O)NS(=O)(=O)c1ccc(C)cc1` ; TGI observed: > 100 µM

`O=c1c2ccccc2[nH]c2c(Cl)cc(Cl)c(N3CCCCC3)c12` yielded TGI of 48.2 µM

Reported TGI for `CN(C)CCOC(=O)Nc1nc2ccc(Sc3ccccc3)cc2[nH]1` was 27.6 µM

The recorded TGI for entry `CCCN1CCC(c2ccc(Nc3nc(Nc4cc(F)ccc4C(N)=O)c4cc[nH]c4n3)c(OC)c2)CC1` equals 7.44 µM

Entry COC(=O)C1(C)NCCc2c1[nH]c1ccccc21 (stereo not drawn) , TGI reported as > 100 µM

`O=c1oc2ccc([N+](=O)[O-])cc2cc1Br` has a reported TGI of > 100 µM

// field: TGI; key: CC1(C)C2CCC(O)(C2)C1N (stereo not drawn) ; value = > 100 µM

Data point: N#Cc1ccc(C2NN=CC23C(=O)c2ccccc2OC3c2ccccc2)cc1 (stereo not drawn) ; TGI = > 100 µM

TGI reported for this compound `CN(C)c1ccc2nc(CC(O)(C(F)(F)F)C(F)(F)F)ccc2c1` : > 10 µM

TGI in this record for `[N-]=[N+]=CC(=O)CCC(=O)N(c1ccccc1)c1ccccc1` : > 10 µM

Sample `CCn1ccc(NS(=O)(=O)c2ccc(N)cc2)nc1=O` ; TGI observed: > 100 µM

Reported TGI of CCOC(=O)C(C(O)c1ccc([N+](=O)[O-])cc1)P(=O)(OCC)OCC (stereo not drawn) : > 100 µM

What the record says about `C=C(CCCO)[C@@H]1CC[C@@](C)(O)[C@H]1C` : TGI is > 100 µM

The value of TGI measured for the compound O=C1CC2SC(COCc3ccccc3)(CCN2Cc2ccccc2)C1 (stereo not drawn) turned out to be > 100 µM

COc1cccc2c1C(=O)c1c(O)c3c(c(O)c1C2=O)C[C@@](O)(C(=O)CO)CC3OC1CC(NCCCC(OC(C)=O)OC(C)=O)C(O)C(C)O1 (stereo partly drawn) yielded TGI of > 1 µM
